Reference source for all entries: PubChem BioAssay (NCI)

Would you mind telling me the reported TGI of each entry?
- Tested on: MDA-MB-231 breast
- assay text: NCI tumour cell line growth inhibition, 48 h

Given Nc1ncnc2c1ncn2C1C=CC(COS(N)(=O)=O)C1 (stereo not drawn) , state its recorded TGI.
> 100 µM

# input molecule: CCOC(=O)c1c(Cl)c2c(n1Cc1cccc(OC)c1)-c1oncc1CC2 ; wanted: its TGI
> 100 µM

Returns the measured TGI for the input molecule. Input: C=C(C)[C@H]1C[C@@H]2O[C@@](O)(/C(C)=C\C(=O)/C=C(/C)C[C@H]3OC(=O)[C@@]24O[C@H]34)[C@@H]1O
> 100 µM

###

Would you mind telling me the reported TGI of each entry?
- Tested on: OVCAR-3 ovarian
- assay text: NCI tumour cell line growth inhibition, 48 h

So what's the measured TGI for this one? COc1nc(N)nc2c1ncn2[C@@H]1O[C@H](CO)[C@@H](O)[C@@H]1O
> 100 µM

Fill in the blank: the reported TGI of CC1=NC(C(C)C)C(=O)O1 (stereo unspecified) is ____.
> 100 µM

Looking for the measured TGI of CNC(=O)C1CCCN1C(=O)C(Cc1cnc[nH]1)NC(=O)C1CCC(=O)N1 (stereo unspecified) , can you help?
> 100 µM

I am curious: what TGI value has been reported for Cc1coc2c1C(=O)C(=O)c1c-2ccc2c1CCCC2(C)C ?
1.47 µM

Reported TGI, compound CCCC(=O)Nc1ccc2c(c1)CN1C(=O)c3ccccc3C1=N2 : ____
> 100 µM

Which value of TGI has been reported for O=NN/C(=C1\Nc2ccc([N+](=O)[O-])cc2NC1=O)C(O)c1ccc([N+](=O)[O-])cc1 (stereo unspecified) in the records?
> 100 µM

Sample N#Cc1cc(N(CCCl)CCCl)c([N+](=O)[O-])cc1[N+](=O)[O-] — what was its TGI?
> 100 µM

Which measured TGI value corresponds to CC(C)(O)CO/N=C1\C(c2c(O)[nH]c3ccccc23)=Nc2ccccc21 ?
5.95 µM

Given COc1ccc2oc(=O)c(-c3nc4ccccc4o3)cc2c1 , state its recorded TGI.
> 100 µM

Dear colleague, I am looking for the recorded TGI of the following compound: C=C(C)[C@H]1C[C@@H]2O[C@@](O)(/C(C)=C\C(=O)/C=C(/C)C[C@H]3OC(=O)[C@@]24O[C@H]34)[C@@H]1O
> 100 µM

What does the record list as TGI for Cn1c(=O)cc(N=Nc2ccc(Cl)c(Cl)c2)[nH]c1=O ?
33.2 µM

Record request: TGI value, item COC(=O)C1(Cc2cccc(C)c2)Cc2c(C)cccc2C1=O (stereo unspecified)
> 100 µM

Using the record for COc1cc(C2CC(c3ccccc3)=NN2C(C)=O)cc(OC)c1OC (stereo unspecified) , report its TGI.
6.52 µM

// returns reported TGI for input Clc1ccc(C2=C(c3ccccc3)C(c3ccc(Cl)cc3)N3C(=N[C@H]4CCCC[C@@H]43)N2)cc1 (stereo partly specified)
26.7 µM

Param item = O=C1N=NC(=O)N1c1cc(C(F)(F)F)cc(C(F)(F)F)c1 ; retrieve measured TGI.
> 23 µM

Which measured TGI value corresponds to Cc1ccc(NC2=C(Cl)C(=O)N(Cc3ccccc3)C2=O)cc1Cl ?
15 µM

Recorded TGI of CCC1c2[nH]c3ccccc3c2C[C@H]2C(=O)N3CCC[C@H]3C(=O)N12 (stereo partly specified) , please.
> 100 µM

Please report the recorded TGI for Cn1ccnc1C(=O)/C=C/c1ccc(CC(=O)Nc2ccc(F)cc2)cc1 .
3.67 µM

Which measured TGI value corresponds to C/C=C1\CNC1C(=O)O (stereo unspecified) ?
> 100 µM

If you can, please state the reported TGI value of O=c1c2cc(-c3ccccc3)cnc2sn1-c1ccc(Oc2ccccc2)cc1 .
> 100 µM

State the recorded TGI for this entry: CCOC(=O)c1c(Cl)c2c(n1Cc1cccc(OC)c1)-c1oncc1CC2
2.92 µM
